meta.source: paper PMC4153677

Experimental Target: Recombinant human cathepsin K (Homo sapiens)
Construct: made in house
Experiment: Thermal stability of cathepsin K at pH 7.4 in the presence of modifiers
Format: biochemical
Condition: 37 °C and pH 7.4
Measurement Label: stability: ln(sf), sf = ratio of half-lives in the presence and absence of modifier

Below, 2 compounds whose answers are already recorded.
O=C(O)c1ccccc1C(=O)Nc1cccc([N+](=O)[O-])c1 [Compound 7, 2-[(3-Nitrophenyl)carbamoyl]benzoic acid] ... 0.47
O=C(O)C(Cc1ccccc1-c1ccccc1)C(=O)O ... 0.41

Query string: Entry Nc1cc(C(=O)O)ccc1NCC1CCCO1 (stereo not shown) needs its stability: ln(sf), sf = ratio of half-lives in the presence and absence of modifier filled in; supply it.
Result string: 0.74

Query string: Entry COC(=O)CNC1CC(=O)N(c2ccc(OC)cc2)C1=O (stereo not shown) needs its stability: ln(sf), sf = ratio of half-lives in the presence and absence of modifier filled in; supply it.
Result string: 0.02

Query string: Entry OC(c1cc(-c2ccc(C(F)(F)F)cc2)nc(C(F)(F)F)c1)C1CCCCN1 (stereo not shown) needs its stability: ln(sf), sf = ratio of half-lives in the presence and absence of modifier filled in; supply it.
Result string: 0.79

Query string: Entry NCC1CCN(CCc2ccccc2)CC1 needs its stability: ln(sf), sf = ratio of half-lives in the presence and absence of modifier filled in; supply it.
Result string: 0.18

Query string: Entry O=C(Nc1ccc(C(=O)O)c(O)c1)c1ccccc1 needs its stability: ln(sf), sf = ratio of half-lives in the presence and absence of modifier filled in; supply it.
Result string: 0.26

###

Experimental Target: Recombinant human cathepsin K (Homo sapiens, UniProt P43235)
Construct: made in house
Sequence (P43235 115-329): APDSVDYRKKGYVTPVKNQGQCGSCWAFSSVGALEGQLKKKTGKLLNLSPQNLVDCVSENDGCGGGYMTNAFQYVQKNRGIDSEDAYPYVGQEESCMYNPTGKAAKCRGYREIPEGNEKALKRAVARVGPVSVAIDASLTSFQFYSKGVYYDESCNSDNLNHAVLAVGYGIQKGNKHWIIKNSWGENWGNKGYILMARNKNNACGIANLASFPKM
Experiment: Kinetic measurements, hydrolysis of the fluorogenic substrate Z-FR↓AMC (general modifier mechanism)
Assay type: biochemical
Parameters: key: dimensionless coefficients multiplying KS (α) and kcat (β)
Condition: substrate Z-FR↓AMC; pH 5.50, 25°C, 0.5 nM enzyme
Param label: returns T when α (coefficient, effect of modifier on the affinity for the substrate) < 2, returns F otherwise, including exact equality.

O=C(Nc1ccc(C(=O)O)c(O)c1)c1ccccc1 ... T

Query string: Regarding COC(=O)CNC1CC(=O)N(c2ccc(OC)cc2)C1=O (centres unmarked) , kindly confirm whether its α (coefficient, effect of modifier on the affinity for the substrate) is beneath 2.
Result string: T

Query string: Regarding O=C(O)c1ccccc1C(=O)Nc1cccc([N+](=O)[O-])c1 [Compound 7, 2-[(3-Nitrophenyl)carbamoyl]benzoic acid] , kindly confirm whether its α (coefficient, effect of modifier on the affinity for the substrate) is beneath 2.
Result string: T

Query string: Regarding NCC1CCN(CCc2ccccc2)CC1 , kindly confirm whether its α (coefficient, effect of modifier on the affinity for the substrate) is beneath 2.
Result string: F

Query string: Regarding O=C(O)C(Cc1ccccc1-c1ccccc1)C(=O)O , kindly confirm whether its α (coefficient, effect of modifier on the affinity for the substrate) is beneath 2.
Result string: F
